Taken from patent US20150246136A1.

Quick reference for IC50 (nM), HT29 meso+ cells, MTT proliferation assay among some binders
target: Mesothelin (SwissProt reference Q13421-3) (Homo sapiens, UniProt Q13421 37-622); assay: cell-based or functional assay
metric_name: IC50 (nM), HT29 meso+ cells, MTT proliferation assay

>  <binder>
Example 380 (Diastereomer 2), conjugate of anti-mesothelin antibody MF-Ta (antibody, human IgG1, lambda, V domains shown, toxophore-linker on Lys NH, sites not given) VH: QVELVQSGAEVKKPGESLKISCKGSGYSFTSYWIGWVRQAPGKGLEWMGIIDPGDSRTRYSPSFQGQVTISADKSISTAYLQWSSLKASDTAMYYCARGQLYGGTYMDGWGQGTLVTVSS VL: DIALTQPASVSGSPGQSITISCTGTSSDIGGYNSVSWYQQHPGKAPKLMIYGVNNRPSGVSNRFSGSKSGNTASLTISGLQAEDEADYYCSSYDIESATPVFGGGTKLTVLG

>  <result_value>
15 nM

$$$$
>  <binder>
Example 367, conjugate of anti-mesothelin antibody MF-Ta (antibody, human IgG1, lambda, V domains shown, toxophore-linker on Lys NH, sites not given) VH: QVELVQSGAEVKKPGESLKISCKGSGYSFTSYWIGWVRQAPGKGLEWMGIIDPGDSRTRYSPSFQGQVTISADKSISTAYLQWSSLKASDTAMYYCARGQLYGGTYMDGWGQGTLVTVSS VL: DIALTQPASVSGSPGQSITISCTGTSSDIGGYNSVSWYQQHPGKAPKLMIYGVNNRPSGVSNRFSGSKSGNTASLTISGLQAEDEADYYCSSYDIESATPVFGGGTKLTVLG

>  <result_value>
0.06 nM

$$$$
>  <binder>
Example 58, conjugate of anti-mesothelin antibody MF-Ta (antibody, human IgG1, lambda, V domains shown, toxophore-linker on Lys NH, sites not given) VH: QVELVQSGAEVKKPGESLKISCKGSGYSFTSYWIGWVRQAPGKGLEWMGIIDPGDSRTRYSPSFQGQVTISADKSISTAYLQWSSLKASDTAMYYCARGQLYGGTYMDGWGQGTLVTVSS VL: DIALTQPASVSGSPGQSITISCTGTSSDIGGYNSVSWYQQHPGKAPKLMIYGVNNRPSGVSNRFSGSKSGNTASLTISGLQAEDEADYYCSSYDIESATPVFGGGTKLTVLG

>  <result_value>
5 nM

$$$$
>  <binder>
Example 90, conjugate of anti-mesothelin antibody MF-Ta (antibody, human IgG1, lambda, V domains shown, toxophore-linker on Cys sulfur, sites not given) VH: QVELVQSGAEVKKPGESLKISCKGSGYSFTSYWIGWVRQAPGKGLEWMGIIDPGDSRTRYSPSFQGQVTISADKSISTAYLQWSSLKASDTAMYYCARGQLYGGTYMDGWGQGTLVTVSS VL: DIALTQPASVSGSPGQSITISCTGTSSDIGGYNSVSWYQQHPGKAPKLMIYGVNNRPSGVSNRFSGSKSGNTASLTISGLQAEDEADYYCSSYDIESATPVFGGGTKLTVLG

>  <result_value>
2.6 nM

$$$$
>  <binder>
Example 111, conjugate of anti-mesothelin antibody MF-Ta (antibody, human IgG1, lambda, V domains shown, toxophore-linker on Cys sulfur, sites not given) VH: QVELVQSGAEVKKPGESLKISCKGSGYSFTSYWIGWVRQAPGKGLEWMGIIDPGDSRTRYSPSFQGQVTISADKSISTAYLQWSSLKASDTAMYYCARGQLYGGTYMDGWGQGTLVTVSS VL: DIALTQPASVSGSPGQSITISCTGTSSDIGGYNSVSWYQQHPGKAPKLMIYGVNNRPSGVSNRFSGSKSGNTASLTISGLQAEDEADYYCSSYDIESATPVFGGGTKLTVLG

>  <result_value>
0.7 nM

$$$$
